src = patent US20140051645A1

Molecular target: T1, human CTLA-4-Fc (Chimerigen) (human, UniProt P16410 36-161, limits assumed)
T1 construct: Bought fusion protein; also called hCTLA4-Fc; not shown: It was captured by an anti-human IgG-Fc antibody
T1 sequence (looked up): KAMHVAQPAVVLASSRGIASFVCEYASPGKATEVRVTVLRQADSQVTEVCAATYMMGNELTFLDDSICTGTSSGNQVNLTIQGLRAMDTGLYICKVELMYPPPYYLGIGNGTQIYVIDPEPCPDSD
Experiment: SPR, Biacore T100, 25 C; CTLA4-Fc captured on anti-human IgG-Fc, mutein as analyte; 1:1 Langmuir fit
VALUE_TYPE: kon (M⁻¹ s⁻¹)
Respond numerically; units are M⁻¹ s⁻¹ and should not be typed.

Record excerpt, results attached:
BINDER	VALUE_TYPE	UNITS_TEXT	OBSERVED
hNGALM6 (designed binder) QDSTSDLIPAPPLSKVPLQQNFQDNQFHGKWYVVGLAGNRILRSDQHPMPMYATIYELKGDKSYNVTSVISSHKKCLYSIATFVPGSQPGEFTLGNIKSYGDKESYLVRVVSTDYNQYAVVFFKYASDNDESFSITIYGRTKELASELKENFIRFSKSLGLPENHIVFPVPIDQCIDGSAWSHPQFEK	kon	M⁻¹ s⁻¹	335000
hNGALM4 (designed binder) QDSTSDLIPAPPLSKVPLQQNFQDNQFHGKWYVVGLAGNRILRDDQHPMPMYATIYELKGDKSYNVTSVISSHKKCLYPIATFVPGSQPGEFTLGNIKSYGDKWSYLVRVVSTDYNQYAVVFFKHADSNYESFSITIYGRTKELASELKENFIRFSKSLGLPENHIVFPVPIDQCIDG	kon	M⁻¹ s⁻¹	539000

Here's the next entry for you.
kon in this record for hNGALM5 (designed binder) QDSTSDLIPAPPLSKVPLQQNFQDNQFHGKWYVVGLAGNRILRSDQHPMRMYATIYELKGDKSYNVTSVISSHKKCLYTIATFVPGSQPGEFTLGNIKSYGDKWSYLVRVVSTDYNQYAVVFFKHADTNYESFSITIYGRTKELASELKENFIRFSKSLGLPENHIVFPVPIDQCIDGSAWSHPQFEK : 380000
